# Tested on: E. coli ATCC 25922
# assay-info: MIC, E. coli ATCC 25922
# Assay type: cell-based
# assay-conditions: Table 18, Ec

# compound, MIC Ec
records = [
    ("CNc1cc(F)cc2c1[nH]c1nc(Nc3cnn4ccnc4c3)nc(N3C[C@H]4C[C@@H]3C[C@H]4N)c12 [Compound 10.46]", "≤ 0.5 µg/mL"),
    ("CNc1cc(F)c(Cl)c2c1[nH]c1nc(Oc3cnc4ccnn4c3)nc(N3C[C@H]4C[C@@H](N)[C@H]4C3)c12 [Compound 10.86]", "0.25 µg/mL"),
    ("CNc1cc(F)c(F)c2c1[nH]c1nc(Oc3cnc([C@H](C)O)nc3)nc(N3C[C@H]4C[C@@H]3C[C@H]4N)c12 [Compound 10.25]", "≤ 0.5 µg/mL"),
    ("CNc1cc(F)c(Cl)c2c1[nH]c1nc(Oc3cnc4ccnn4c3)nc(N3CC4(CC[C@]4(C)N)C3)c12 [Compound 10.90]", "≤ 0.5 µg/mL"),
    ("CNc1cc(F)c(F)c2c1[nH]c1nc(Oc3cnc(C(C)O)nc3)nc(N3CCC4(CCCC4N)C3)c12 (stereo not shown) [Compound 10.112]", "≤ 0.5 µg/mL"),
    ("CNc1cc(F)cc2c1[nH]c1nc(Oc3cnc4c(C)cnn4c3)nc(N3CC4C(N)C4C3)c12 (stereo not shown) [Compound 10.40]", "≤ 0.5 µg/mL"),
    ("CNc1cc(F)c(F)c2c1[nH]c1nc(Oc3cnc(C(C)O)nc3)nc(N3CC4(CC[C@]4(C)N)C3)c12 (stereo partly shown) [Compound 10.81]", "0.5 µg/mL"),
    ("CNc1cc(F)cc2c1[nH]c1nc(Oc3cnc4c(C)cnn4c3)nc(N3CC4C[C@@H](N)C4C3)c12 (stereo partly shown) [Compound 10.30]", "≤ 0.5 µg/mL"),
    ("CNc1cc(F)cc2c1[nH]c1nc(Oc3cnc(C)nc3)nc(N3CCOCC3)c12 [Compound 10.54]", "≤ 0.5 µg/mL"),
    ("CNc1cc(F)cc2c1[nH]c1nc(Oc3cnc(C(C)O)nc3)nc(N3CC4CC(C3)C4N)c12 (stereo not shown) [Compound 10.82]", "0.5 µg/mL"),
    ("CNc1cc(F)cc2c1[nH]c1nc(Oc3cnc(C)nc3)nc(N3C[C@H]4C[C@@H]3C[C@H]4N(CCO)CCO)c12 [Compound 10.115]", "1 µg/mL"),
    ("CNc1cc(F)c(F)c2c1[nH]c1nc(Oc3cnc4c(C)cnn4c3)nc(N3C[C@H]4C[C@@H]3C[C@H]4N)c12 [Compound 10.26]", "≤ 0.5 µg/mL"),
    ("CNc1cc(F)cc2c1[nH]c1nc(Oc3cnc(C(C)O)c(Cl)c3)nc(N3C[C@H]4C[C@@H]3C[C@H]4N)c12 (stereo partly shown) [Compound 10.15]", "≤ 0.5 µg/mL"),
    ("CNc1cc(F)cc2c1[nH]c1nc(Oc3ccc([C@@H](C)O)nc3)nc(N3CC4[C@H](N)CC4(C)C3)c12 (stereo partly shown) [Compound 10.76]", "≤ 0.5 µg/mL"),
    ("CNc1cc(F)cc2c1[nH]c1nc(Oc3cnc(C)nc3)nc(N3CCC(S(N)(=O)=O)C3)c12 (stereo not shown) [Compound 10.104]", "8 µg/mL"),
    ("CNc1cc(F)c(F)c2c1[nH]c1nc(Oc3cnc([C@@H](C)O)nc3)nc(N3CC4NCC[C@@H]4C3)c12 (stereo partly shown) [Compound 10.31]", "≤ 0.5 µg/mL"),
    ("CNc1cc(F)c(F)c2c1[nH]c1nc(Oc3cnc4ccnn4c3)nc(N3C[C@H]4C[C@@H](N)[C@H]4C3)c12 [Compound 10.28]", "≤ 0.5 µg/mL"),
    ("CNc1cc(F)c(C#N)c2c1[nH]c1nc(Oc3cnc(C)nc3)nc(N3C[C@H]4CCN[C@H]4C3)c12 [Compound 10.70]", "≤ 0.5 µg/mL"),
    ("CNc1cc(F)c(F)c2c1[nH]c1nc(Oc3cnc(C)nc3)nc(N3CC4NCC[C@@H]4C3)c12 (stereo partly shown) [Compound 10.32]", "≤ 0.5 µg/mL"),
    ("C=Cc1cc(F)cc2c1[nH]c1nc(Oc3cnc(C)nc3)nc(N3C[C@H]4C[C@@H]3C[C@H]4N)c12 [Compound 10.84]", "≤ 0.5 µg/mL"),
    ("CNc1cc(F)cc2c1[nH]c1nc(Oc3cnc(C(C)O)nc3)nc(N3CC4(CC[C@]4(C)N)C3)c12 (stereo partly shown) [Compound 10.74]", "1 µg/mL"),
    ("CNc1cc(F)cc2c1[nH]c1nc(Oc3cnc4ccnn4c3)nc(N3C[C@H]4CCN[C@H]4C3)c12 [Compound 10.13]", "≤ 0.5 µg/mL"),
    ("CNc1cc(F)cc2c1[nH]c1nc(Oc3cnc(/C(C)=N/OC)nc3)nc(N3C[C@H]4C[C@@H]3C[C@H]4N)c12 [Compound 10.27]", "≤ 0.5 µg/mL"),
    ("CNc1cc(F)cc2c1[nH]c1nc(Sc3nncs3)nc(N3C[C@H]4C[C@@H]3C[C@H]4N)c12 [Compound 10.11]", "≤ 0.5 µg/mL"),
    ("CNc1cc(F)cc2c1[nH]c1nc(Oc3cnc(C(C)OC)nc3)nc(N3CC4CC4C3)c12 (stereo not shown) [Compound 10.117]", "≤ 0.5 µg/mL"),
    ("CNc1cc(F)cc2c1[nH]c1nc(Oc3cnc4c(C)cnn4c3)nc(N3C[C@H]4CCN[C@H]4C3)c12 [Compound 10.24]", "≤ 0.5 µg/mL"),
    ("CNc1cc(F)cc2c1[nH]c1nc(Oc3cnc(N(C)N)nc3)nc(N3C[C@H]4C[C@@H]3C[C@H]4N)c12 [Compound 10.98]", "≤ 0.5 µg/mL"),
    ("CNc1cc(F)cc2c1[nH]c1nc(Oc3cnc4ccnn4c3)nc(N3CC4(CCC4N)C3)c12 (stereo not shown) [Compound 10.56]", "≤ 0.5 µg/mL"),
]

---

# System: E. coli ATCC 25922
# assay-info: MIC, E. coli ATCC 25922
# Format: cell-based
# assay-conditions: Escherichia coli, ATCC25922, Table 16; new R4 substituents; EC8 not defined; read-out: EC8 MIC
Known MIC of a selection of compounds

# compound, study-system, lt-gt-eq, MIC [µg/mL]
data = [
    ("CNc1cc(F)cc2c1[nH]c1nc(Oc3cnc(C)nc3)nc(N3CC[C@H](CN)C3)c12", "E. coli ATCC 25922", "≤", 0.5),
    ("CNc1cc(F)cc2c1[nH]c1nc(Oc3cnc(C)nc3)nc(N3CCC(N)(C(F)(F)F)C3)c12 (stereo not shown)", "E. coli ATCC 25922", "=", 1),
    ("CNc1cc(F)cc2c1[nH]c1nc(Oc3cnc(C)nc3)nc(N3CC(N)C(C(F)(F)F)C3)c12 (stereo not shown) [drawing 1824]", "E. coli ATCC 25922", ">", 16),
    ("CNc1cc(F)cc2c1[nH]c1nc(Oc3cnc(C)nc3)nc(N3CC(N)C(C(=O)N4CCOCC4)C3)c12 (stereo not shown) [drawing 1827]", "E. coli ATCC 25922", "=", 16),
]

---

# Tested on: S. pneumoniae ATCC 51916
# assay-info: MIC, S. pneumoniae ATCC 51916
# Assay type: cell-based
# assay-conditions: Table 17; comparative; Spn52 not defined

# compound, Spn52 MIC
rows = [
    ("CNc1cc(F)cc2c1[nH]c1nc(Oc3cnc4c(C)cnn4c3)nc(N3C[C@H]4C[C@@H]3C[C@H]4N)c12 [drawing 1831]", "≤ 1 ng/mL"),
    ("CNc1cc(F)cc2c1[nH]c1nc(Oc3cnc(C)nc3)nc(C3C[C@H]4CCN[C@H]4C3)c12 (stereo partly shown)", "< 30 ng/mL"),
    ("CNc1cc(F)cc2c1[nH]c1nc(Oc3cnc4ccnn4c3)nc(N3C[C@H]4C[C@@H]3C[C@H]4N)c12", "≤ 1 ng/mL"),
    ("CNc1cc(F)cc2c1[nH]c1nc(Oc3cnc(C)nc3)nc(N3C[C@H]4C[C@@H]3C[C@H]4N)c12", "≤ 16 ng/mL"),
]

---

# System: S. aureus ATCC 13709
# assay-info: MIC, S. aureus ATCC 13709
# Assay type: cell-based
# assay-conditions: Staphylococcus aureus, ATCC13709, S. aureus; Alamar Blue read after overnight incubation at 35° C.; read-out: MIC Sa
Known MIC of a selection of compounds

# compound, study-system, MIC
data = [
    ("CNc1cccc2c1[nH]c1nc(Sc3cc4ncccc4[n+]([O-])c3)nc(N3C[C@@H]4[C@@H](N)[C@@H]4C3)c12 [Compound 1.31]", "S. aureus ATCC 13709", "≤ 0.5 µg/mL"),
    ("CNc1cccc2c1[nH]c1nc(Oc3cncc(OC)c3)cc(N3CC4C(N)C4C3)c12 (stereo not drawn) [Compound 3.35]", "S. aureus ATCC 13709", "≤ 0.5 µg/mL"),
    ("CNc1cccc2c1[nH]c1nc(Sc3cnc4cccnc4c3)nc(N3CCC4(CC4N)C3)c12 (stereo not drawn) [Compound 1.25]", "S. aureus ATCC 13709", "≤ 0.5 µg/mL"),
    ("CNc1cccc2c1[nH]c1nc(Oc3cnc4cccnc4c3)cc(N3CC(N)C4(CC4)C3)c12 (stereo not drawn) [Compound 3.52]", "S. aureus ATCC 13709", "≤ 0.5 µg/mL"),
    ("CNc1cccc2c1[nH]c1nc(Oc3cncc(F)c3)cc(N3CC4CNC4C3)c12 (stereo not drawn) [Compound 3.7]", "S. aureus ATCC 13709", "1 µg/mL"),
    ("CNc1cc(F)cc2c1[nH]c1nc(Oc3cnc(C(C)O)nc3)nc(N3CC4(CC[C@H]4N)C3)c12 (stereo partly drawn) [Compound 4.430]", "S. aureus ATCC 13709", "≤ 0.5 µg/mL"),
    ("CNc1cccc2c1[nH]c1nc(Oc3cncnc3)cc(N3C/C(=N\\OC)[C@@H](N)C3)c12 [Compound 3.62]", "S. aureus ATCC 13709", "≤ 0.5 µg/mL"),
    ("CNc1cccc2c1[nH]c1nc(Sc3cnc4ccc[n+]([O-])c4c3)nc(N3CC(N)C4(CC4)C3)c12 (stereo not drawn) [Compound 1.40]", "S. aureus ATCC 13709", "≤ 0.5 µg/mL"),
    ("CNc1cccc2c1[nH]c1nc(Sc3cnc4cccnc4c3)nc(N3CCC(C(O)c4cccs4)CC3)c12 (stereo not drawn) [Compound 1.70]", "S. aureus ATCC 13709", "1 µg/mL"),
    ("CNc1cc(F)cc2c1[nH]c1nc(Oc3cnc(C)nc3)nc(N3CC(N)C(C(=O)OC)C3)c12 (stereo not drawn) [Compound 4.437]", "S. aureus ATCC 13709", "≤ 0.5 µg/mL"),
    ("CNc1cc(F)cc2c1[nH]c1nc(Oc3cnc(C)nc3)nc(-c3ccc(F)cc3CN)c12 [Compound 4.445]", "S. aureus ATCC 13709", "2 µg/mL"),
    ("CNc1cccc2c1[nH]c1nc(Sc3cnc4nccnc4c3)nc(N3CC[C@H](N)C3)c12 [Compound 1.15]", "S. aureus ATCC 13709", "1 µg/mL"),
    ("CNc1cccc2c1[nH]c1nc(Oc3ccc(C(=O)OC)nc3)cc(N3CC4C(N)C4C3)c12 (stereo not drawn) [Compound 3.21]", "S. aureus ATCC 13709", "≤ 0.5 µg/mL"),
    ("COc1cccc2c1[nH]c1nc(Sc3cnc4ccc[n+]([O-])c4c3)nc(N3CC[C@@H](N)C3)c12 [Compound 1.78]", "S. aureus ATCC 13709", "≤ 0.5 µg/mL"),
    ("CCNc1cccc2c1[nH]c1nc(Sc3cnc4cccnc4c3)nc(N3CC4C(N)C4C3)c12 (stereo not drawn) [Compound 1.11]", "S. aureus ATCC 13709", "≤ 0.5 µg/mL"),
]
